# Target: PDE6C-Y323N (human, UniProt P51160 1-858, Y323N)
# Sequence (P51160 whole entry Y323N): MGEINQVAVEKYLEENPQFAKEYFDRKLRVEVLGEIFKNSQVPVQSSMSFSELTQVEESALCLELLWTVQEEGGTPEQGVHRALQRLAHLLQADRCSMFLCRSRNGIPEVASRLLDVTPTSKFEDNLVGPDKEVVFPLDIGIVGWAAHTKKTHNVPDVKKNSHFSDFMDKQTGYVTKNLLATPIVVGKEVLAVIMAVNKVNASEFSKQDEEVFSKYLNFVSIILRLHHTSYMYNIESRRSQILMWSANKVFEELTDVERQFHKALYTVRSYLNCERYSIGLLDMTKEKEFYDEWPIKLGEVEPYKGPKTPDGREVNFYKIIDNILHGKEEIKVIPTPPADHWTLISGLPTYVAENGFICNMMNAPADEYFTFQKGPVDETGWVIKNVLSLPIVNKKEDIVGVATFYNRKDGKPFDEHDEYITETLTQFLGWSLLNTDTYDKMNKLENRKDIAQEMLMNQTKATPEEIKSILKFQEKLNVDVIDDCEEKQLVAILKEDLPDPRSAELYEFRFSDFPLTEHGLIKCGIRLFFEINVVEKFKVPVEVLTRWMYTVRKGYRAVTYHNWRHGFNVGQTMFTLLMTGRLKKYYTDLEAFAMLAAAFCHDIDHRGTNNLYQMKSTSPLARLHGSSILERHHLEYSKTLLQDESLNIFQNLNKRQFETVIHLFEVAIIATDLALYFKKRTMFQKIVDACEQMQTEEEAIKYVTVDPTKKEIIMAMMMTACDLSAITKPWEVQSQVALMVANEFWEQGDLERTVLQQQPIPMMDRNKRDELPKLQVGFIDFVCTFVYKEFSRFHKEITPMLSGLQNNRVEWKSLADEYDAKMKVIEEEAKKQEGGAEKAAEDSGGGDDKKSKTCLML
# Assay Explanation: inhibition of enzyme activity
Measure Name: Ki (nM)
Could you give me the number in nM? Just the number is fine.

The value of Ki measured for the binder bovine rod Pγ (natural protein, UniProt P04972 1-87, looked up) MNLEPPKAEIRSATRVMGGPVTPRKGPPKFKQRQTRQFKSKPPKKGVQGFGDDIPGMEGLGTDITVICPWEAFNHLELHELAQYGII turned out to be 0.176
